- System: MS2 coat protein
- run_description: apparent KD of MS2 coat protein, switch ON state; designed switch direction (-1 OFF switch, 1 ON switch): -1; higher = weaker reporter binding
- measurement_context: FMN input: 0 or 200 uM; Eterna round: R93 (includes R88 designs)
We begin with a simple list: items and their reported apparent KD of MS2 coat protein.
Give the value; after it, write the unit.

Before answering, review these 6 worked examples.
[[record]]
macromolecule_sequence = "GAAAACAGAGGAUAUACAAAAUUAUGACGAAAGUCAUAAAAACAUGAGGAUCACCCAUGUAGAAGGCUGAAGAA [Meechl MS2 Ex2]"
result = "28.2 nM"

[[record]]
macromolecule_sequence = "AUAGUACAUGAGGAUCACCCAUGUCAGGAUAUUGGAUAUGACAAAAAAAAAAAGUUAACGAGAAGGGACUAUAA [EX1 Malc#15]"
result = "31.2 nM"

[[record]]
macromolecule_sequence = "AACACACAUGAGGAUCACCCAUGUCAGGAUAUGCCGGGUUAGAGCCAACUGAAAAACCGUAGAAGGGACGAAAA [Bilbo Confounded 9 - Jieux - Exclusion 1]"
result = "66.9 nM"

[[record]]
macromolecule_sequence = "AAAAAACAUGAGGAUCACCCAUGUAAGGAUAUCUAAAAUAAAAGAAAAAUAAAGAAAAGGAGAAGGUACAUGGA [JL wbt mod 22]"
result = "22.9 nM"

[[record]]
macromolecule_sequence = "AAAAAGGGAGGAUAUACAUGAGGAUCACCCAUGUAAAAAAAAAAAAAAGGGAGGGAAGGUAGAAGGCCCAAAAA [Excls3-II]"
result = "39.6 nM"

[[record]]
macromolecule_sequence = "AGCUAGUCAGGAUAUACGAACAUGUCGAAAGACGUGAAGGGACAUGAGGAUCACCCAUGUAGAAGGGACUAGCA [Mat - Exclusion 2 - JL mod - D1]"
result = "34.2 nM"


Query: apparent KD of MS2 coat protein for GGAGGCGUAGGAUAUACAUGAGGAUCACCCAUGUGAGAGAAAAAAGUGAGAAAGAAAAGUAGAAGGACGUUUCG [salish99-ex3-127] ?
Response: 45.4 nM

Query: Can you check AAGUUAUUAGGAUAUACUUGUGCGAUUAAUACGUUGAUAGUACAUGAGGAUCACCCAUGUAGAAGGAAUAAAAA [JR_Exc002_Sub411] next?
Response: 38.4 nM

Query: Can you check UAAGGACAUGAGGAUCACCCAUGUGAGGAUAUGCUCUACGAACGUUUAUUUAUGAGAAGCAGAAGGCACAUUUU [try 2] next?
Response: 50.4 nM

Query: Can you check AAAAGCUCAGGAUAUACGGUCUGUUGUUGAAAAAGUAAAAAACAUGAGGAUCACCCAUGUAGAAGGGAGCGAAA [Exclusion2-cac1] next?
Response: 39.7 nM

Query: Can you check AAAAAGUGAGGAUAUACAUGAGGAUCACCCAUGUGAUAAAAAAAAAGGGUGGAAGAAAGUAGAAGGCACCAAAA [Ex 3 May 49] next?
Response: 108 nM

----------
- Test system: MS2 coat protein
- run_description: apparent KD of MS2 coat protein; designed switch direction (-1 OFF switch, 1 ON switch): 1; higher = weaker reporter binding
- measurement_context: Eterna round: R95; input ligand: microRNA oligo, concentration not stated
measured_metric: apparent KD of MS2 coat protein (nM)
# output: bare number, implied unit nM

[[record]]
macromolecule_sequence = "UACAAUCUAUCUGAGGAUAUCAUGAAAUAAACAUGAGGAUCACCCAUGUGCAGGAAAACUGCAUAUGAGAAGGCAGAUAGAUUGA [salish99_ss2_r3_018] (puzzle: Same State 2)"
measured_metric = "apparent KD of MS2 coat protein"
reading_unit = "nM"
numeric_result = 1130

[[record]]
macromolecule_sequence = "GGAGGACAUGAGGAUCACCCAUGUGGAUGGGCGCUAGGAUAUGCGAGAGGAUGGAGAGAAGCAGAAGGAGUGGGUU [JR_SS1_Sub042] (puzzle: Same State 1)"
measured_metric = "apparent KD of MS2 coat protein"
reading_unit = "nM"
numeric_result = 79.6

[[record]]
macromolecule_sequence = "GAAGGAUGAGCGUAGGAUAUAGGAGGAGUGACAUGAGGAUCACCCAUGUAGUAAGAGGGAGGGUACUAGAAGGACGAGGAAGAAG [JR_SS2_Sub066] (puzzle: Same State 2)"
measured_metric = "apparent KD of MS2 coat protein"
reading_unit = "nM"
numeric_result = 6

[[record]]
macromolecule_sequence = "ACAAGCUUUUCUGCAUUGAAAGGUUGGUUACAUGAGGAUCACCCAUGUUUUUAUGAAAAUAAUGCUCCUCGUCUUAU [JR_SHM208A_Sub093] (puzzle: Sensor for hsa-mir-208a)"
measured_metric = "apparent KD of MS2 coat protein"
reading_unit = "nM"
numeric_result = 19.8

[[record]]
macromolecule_sequence = "AAUAAAGUCAGUAAGGAUAUCCAAAUGGCGACAUGAGGAUCACCCAUGUAAGAAACCCGACAUCGGGAGAAGGUACAUGACGAUG [Enlaorle] (puzzle: Same State 2)"
measured_metric = "apparent KD of MS2 coat protein"
reading_unit = "nM"
numeric_result = 124

[[record]]
macromolecule_sequence = "AUAUUACAUGAGGAUCACCCAUGUCUCUAAAGUCGAGGAUAUGGGCAGGUUAUAUCCGAACCAGAAGGCGAAUUAU [SS1 Teenbexe 9] (puzzle: Same State 1)"
measured_metric = "apparent KD of MS2 coat protein"
reading_unit = "nM"
numeric_result = 317

[[record]]
macromolecule_sequence = "UCUUGGUUUUUGCUCGUUUUUUGUGUUGAACAUGAGGAUCACCCAUGUAUUGUACGGUCCGGUUUAAUAAUGGUCCG [JMF 12] (puzzle: Sensor for hsa-mir-208a)"
measured_metric = "apparent KD of MS2 coat protein"
reading_unit = "nM"
numeric_result = 14.7

[[record]]
macromolecule_sequence = "CAAGUACAUGAGGAUCACCCAUGUGGAAGAGAUGCAGGAUAUGUGGAGGAAGGGAGUGUAACAGAAGGGCAAGGAG [JR_SS!_Sub020] (puzzle: Same State 1)"
measured_metric = "apparent KD of MS2 coat protein"
reading_unit = "nM"
numeric_result = 45.6


Query: apparent KD of MS2 coat protein for GUUAAACAUGAGGAUCACCCAUGUCAAUGUAGUCGAGGAUAUGGGCAGCUAUGAGGCGUACUAGAAGGCGAAAAGU [Mat - Same State 1 - Mod of JL - D13] (puzzle: Same State 1) ?
Response: 260

Query: Can you check GAUUCACAUGAGGAUCACCCAUGUCGUUUUAUGGGAGGAUAUACGUGGACCGUAGUCCGCGUAGAAGGCCUAAUUG [JL-ss1-3.24 janelle mod] (puzzle: Same State 1) next?
Response: 92.1

Query: Can you check UCUUGGUUUUUGCUCGUUUUUUGUGUUGAACAUGAGGAUCACCCAUGUAUUGUACAGUCCAGUUUAAUAAUGGUCCA [JMF 5] (puzzle: Sensor for hsa-mir-208a) next?
Response: 24.6

----------
- Tested on: MS2 coat protein
- run_description: apparent KD of MS2 coat protein, switch OFF state (with FMN for OFF switches, without FMN for ON switches); designed switch direction (-1 OFF switch, 1 ON switch): -1; higher = weaker reporter binding
- measurement_context: FMN input: 0 or 200 uM; Eterna round: R93 (includes R88 designs)
apparent KD of MS2 coat protein below 40 nM gives condition not met; apparent KD of MS2 coat protein at or above it gives condition met.

Field: example entries. Status: answers known.
[[record]]
macromolecule_sequence = "CUCUUGUCAGGAUAUGAAAGAAAAGAAAAGAAAGAAAAGAAUCAGAAGGGACAUGAGGAUCACCCAUGUAAGAA [EteRNA is fun!]"
label_class = "condition met"

[[record]]
macromolecule_sequence = "AAGAGACAUGAGGAUCACCCAUGUGAGGAUAUGACGUAAAUAAAGAAAGAAGAAAUCGUCAGAAGGCACACCAA [55%, Disencluded 2, 4]"
label_class = "condition met"

[[record]]
macromolecule_sequence = "CUUAAACAUGAGGAUCACCCAUGUGAGGAUAUGAUGCGAAUAAAGAAAGAAGAAAGCAUCAGAAGGCACAUAUG"
label_class = "condition met"

[[record]]
macromolecule_sequence = "GAAGUGUUAGGAUAUCGAUGAAUAAUAAAACAAAGGAACAUUGAGAAGGAACAUGAGGAUCACCCAUGUAUAAC [May 81]"
label_class = "condition not met"

[[record]]
macromolecule_sequence = "AAAACACAUGAGGAUCACCCAUGUGAGGAUAUGAACGAAAUAAAAUAAAAAUAAAAGUUCAGAAGGCACAAAAA [Mat - Exclusion 1 - Eli mod - D13]"
label_class = "condition not met"


Query: # bool: apparent KD of MS2 coat protein of AAGAACUGAGGAUAUACAAAAUAAAAGAAAAGAAAGAAAGAACAUGAGGAUCACCCAUGUAGAAGGUAGAAGAA [Maakherure Amenemhat IV] >= 40 nM
Response: condition not met
